Assay: Example 2 clinical trial: plasma Cmax
Type: in vivo
Conditions: human, intravenous, cohort 3 at the escalated doses (30 mg/m^2 + 50 mg/m^2)
Description: Fifty-six patients were enrolled in this clinical trial with the median prior therapies being 4 and the majority being fludarabine-refractory. […] Cohort 1 was expanded with aggressive TLS prophylaxis. Of the 20 patients in cohort 1, 8 (40%) attained a partial response (PR) with median response duration exceeding 12 months. […] Cohort 3 and 4 did this (Table 4) with acceptable toxicity. Cohort 3 included 19 patients of whom 14 were escalated with the 5th dose. […]
Quantity name: Cmax at 0.5 hr (nM)
Your answer is read as nM, so omit the unit and give the number.

Quick note, Cmax at 0.5 hr for CN1CCC(c2c(O)cc(O)c3c(=O)cc(-c4ccccc4Cl)oc23)[C@H](O)C1.Cl (stereo partly shown) landed at 1950
